# Lookup of reported self-cleavage keyed by entry
B1: LINE1-full (parent)
chain: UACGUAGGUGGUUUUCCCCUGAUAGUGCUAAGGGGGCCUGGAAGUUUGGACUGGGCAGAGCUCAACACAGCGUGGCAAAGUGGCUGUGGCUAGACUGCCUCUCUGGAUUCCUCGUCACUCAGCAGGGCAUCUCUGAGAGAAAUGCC

- Variants of: B1
- method_notes: self-cleavage, relative activity (ratio to wild type); higher = more cleavage; in vitro, sequencing; the parent is a self-cleaving ribozyme
property_measured: self-cleavage

U29G A107G	2.23
U15A C28A	1.16
U45G U108C	1.91
G44A A64G	0.33
U12G U100C	1.33
C3A U104A	0.7
U46A G54A	0.37
C95A U100C	0.09
A117G A138G	1.59
A64G A140G	0.26
G35A U62C	0.03
G60A U104C	0.07
G82A U104C	0.83
A2G C19A	1.24
U5C U62C	0.07
A79C G89A	0.09
A30G A94G	0.34
U46C A77U	1.51
C16U U100A	0.32
G27A U81C	0.8
U9A U130A	1.23
U1A A64G	0.64
U85C U102C	0.12
U13C U108C	1.37
U47A U109C	1.19
U20A A78U	1.34
U5C G126A	1.36
U39G A65G	0.15
A6U U100C	0.76
A50G U62C	0.1
U112C A140U	1.29
C18A A138U	1.66
U5A U102C	0.95
A42G C145G	1.14
U9C C131U	1.6
A94G C113U	0.09
C17U U143A	0.85
U39C C90U	0.07
C37U	1.23
